Biological target: SIK2 kinase (full length, Thermo Fisher) (Homo sapiens, UniProt Q9H0K1)
Construct: SIK2 kinase (full length, Thermo Fisher); purchased Thermo Fisher
Sequence (Q9H0K1 whole entry): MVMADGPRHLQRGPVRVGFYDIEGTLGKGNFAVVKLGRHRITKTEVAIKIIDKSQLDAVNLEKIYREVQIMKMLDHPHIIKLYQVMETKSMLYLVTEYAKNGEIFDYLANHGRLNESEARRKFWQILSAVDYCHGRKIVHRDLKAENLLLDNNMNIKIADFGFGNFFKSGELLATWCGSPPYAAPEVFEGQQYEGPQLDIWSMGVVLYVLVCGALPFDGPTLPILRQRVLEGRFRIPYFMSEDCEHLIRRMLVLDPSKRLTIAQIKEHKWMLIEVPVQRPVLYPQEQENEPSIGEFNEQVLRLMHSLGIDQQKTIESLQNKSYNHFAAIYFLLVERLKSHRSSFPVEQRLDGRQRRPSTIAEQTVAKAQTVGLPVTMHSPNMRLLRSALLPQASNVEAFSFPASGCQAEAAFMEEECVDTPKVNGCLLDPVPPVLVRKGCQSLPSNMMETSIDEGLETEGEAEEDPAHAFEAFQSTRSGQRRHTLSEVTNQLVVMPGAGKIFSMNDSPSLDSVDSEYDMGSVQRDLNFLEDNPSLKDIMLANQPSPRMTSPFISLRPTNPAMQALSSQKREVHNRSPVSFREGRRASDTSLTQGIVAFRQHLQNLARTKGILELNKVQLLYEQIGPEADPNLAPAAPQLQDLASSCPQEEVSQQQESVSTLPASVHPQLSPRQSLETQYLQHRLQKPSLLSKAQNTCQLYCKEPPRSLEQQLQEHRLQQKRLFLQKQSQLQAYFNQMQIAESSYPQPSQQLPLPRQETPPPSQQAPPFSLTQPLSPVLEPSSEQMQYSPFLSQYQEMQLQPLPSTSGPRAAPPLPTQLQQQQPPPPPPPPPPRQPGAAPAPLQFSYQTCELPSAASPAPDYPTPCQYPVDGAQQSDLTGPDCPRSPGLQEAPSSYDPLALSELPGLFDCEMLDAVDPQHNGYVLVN
Assay: Biochemical activities determination for SIK2 protein (TR-FRET)
Settings: 80 uM ATP, 0.5 μM substrate
Reported IC50 by item:
Numbers only here, please. The scale is nM.

The examples below pair each entry with its known result.
COc1cc(-c2coc3cc(OCCN4CCCC4)ccc23)cc(OC(F)F)c1C(=O)N[C@H]1CCC[C@H]1O
224
COc1cc(-c2coc3cc(-c4cnn(C)c4)ccc23)cc(OC(F)F)c1C(=O)N[C@@H]1C[C@@H]1F
3.4
COc1cc(-c2coc3cc(OCCN4CC[C@H](OC)C4)ccc23)cc(OC(F)F)c1C(=O)N[C@@H]1C[C@@H]1F
15
CN1CC[C@@H]1COc1cc(-c2coc3cc(OCCN4CCCC4)ccc23)cc(OC(F)F)c1C(=O)NC1CC1
745
COc1cc(-c2coc3cc(OCCN4CCCC[C@@H]4C)ccc23)cc(OC(F)F)c1C(=O)N[C@@H]1C[C@@H]1F
31
CN(C)CCOc1cc(-c2coc3cc(OCCN4CCCC4)ccc23)cc(OC(F)F)c1C(=O)NC1CC1
781

Query string: Identify the reported IC50 for the following entry. COc1cc(-c2coc3cc(OCCN4CCCC4)ccc23)cc(OC(F)F)c1C(=O)NC1CCCCC1N (racemic)
Result string: 18

Query string: Identify the reported IC50 for the following entry. CN1CC[C@H](Oc2cc(-c3coc4cc(OCCN5CCCC5)ccc34)cc(OC(F)F)c2C(=O)NC2CC2)C1
Result string: 1190

Query string: Identify the reported IC50 for the following entry. O=C(NC1CC1)c1c(OC(F)F)cc(-c2coc3cc(OCCN4CCCC4)ccc23)cc1O[C@H]1CC[C@H](O)CC1
Result string: 8970

----------
Target: SIK3 kinase (aa59-365, Thermo Fisher) (Homo sapiens)
Construct: SIK3 kinase (aa59-365, Thermo Fisher); purchased Thermo Fisher
Sequence (Q9Y2K2 59-365): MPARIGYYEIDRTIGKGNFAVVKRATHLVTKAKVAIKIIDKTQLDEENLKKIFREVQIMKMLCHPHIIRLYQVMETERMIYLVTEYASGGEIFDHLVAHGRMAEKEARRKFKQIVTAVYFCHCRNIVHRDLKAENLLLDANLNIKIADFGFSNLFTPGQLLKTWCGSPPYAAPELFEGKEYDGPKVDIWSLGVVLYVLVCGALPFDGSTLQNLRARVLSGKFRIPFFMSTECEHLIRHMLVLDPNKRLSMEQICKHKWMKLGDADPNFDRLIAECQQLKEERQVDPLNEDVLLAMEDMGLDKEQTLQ
Test: Biochemical activities determination for SIK3 protein (TR-FRET)
Conditions: 125 uM ATP, 0.5 μM STK1 substrate
Reported IC50 by item:
Numbers only here, please. The scale is nM.

The examples below pair each entry with its known result.
COc1cc(-c2coc3cc(OCCN4CCC(C(F)(F)F)C4)ccc23)cc(OC(F)F)c1C(=O)N[C@@H]1C[C@@H]1F (stereo partly shown)
34
COc1cc(-c2coc3cc(OCCN4CC[C@H](C)C4)ccc23)cc(OC(F)F)c1C(=O)N[C@@H]1C[C@@H]1F
32
COc1cc(-c2coc3cc(OCCN4CCCC4)ccc23)cc(OC(F)F)c1C(=O)NC1CC1N (racemic)
1560

Query string: Under SIK3 kinase (aa59-365, Thermo Fisher) (Homo sapiens), report IC50 for COc1ccc(-c2ccc3c(-c4cc5c(c(OC)c4)C(=O)N(CC(F)(F)F)CC5)coc3c2)cn1
Result string: 334

Query string: Under SIK3 kinase (aa59-365, Thermo Fisher) (Homo sapiens), report IC50 for COc1cc(-c2coc3cc(-c4cnn(C5CCN(C)C5)c4)ccc23)cc(OC(F)F)c1C(=O)N[C@@H]1C[C@@H]1F (stereo partly shown)
Result string: 3.9

Query string: Under SIK3 kinase (aa59-365, Thermo Fisher) (Homo sapiens), report IC50 for O=C1c2c(cc(-c3coc4cc(-c5cnn(C6CCOCC6)c5)ccc34)cc2OC(F)F)CCN1CC(F)(F)F
Result string: 69

Query string: Under SIK3 kinase (aa59-365, Thermo Fisher) (Homo sapiens), report IC50 for CN1CC(COc2cc(-c3coc4cc(OCCN5CCCC5)ccc34)cc(OC(F)F)c2C(=O)NC2CC2)C1
Result string: 4240

Query string: Under SIK3 kinase (aa59-365, Thermo Fisher) (Homo sapiens), report IC50 for COc1cc(-c2coc3cc(-c4cnn(C)c4)ccc23)cc(OC(F)F)c1C(=O)NC1CC1
Result string: 15

Query string: Under SIK3 kinase (aa59-365, Thermo Fisher) (Homo sapiens), report IC50 for COc1cc(-c2coc3cc(OCCN4CCC[C@@H](C)C4)ccc23)cc(OC(F)F)c1C(=O)N[C@@H]1C[C@@H]1F
Result string: 74

Query string: Under SIK3 kinase (aa59-365, Thermo Fisher) (Homo sapiens), report IC50 for COc1cc(-c2coc3cc(OCCN4CCCC4)ccc23)cc(OC(F)F)c1C(=O)NC1CCCCC1
Result string: 2900

Query string: Under SIK3 kinase (aa59-365, Thermo Fisher) (Homo sapiens), report IC50 for COc1cc(-c2coc3cc(OCCN4CC[C@@H](F)C4)ccc23)cc(OC(F)F)c1C(=O)N[C@@H]1C[C@@H]1F
Result string: 39

Query string: Under SIK3 kinase (aa59-365, Thermo Fisher) (Homo sapiens), report IC50 for COc1cc(-c2coc3cc(OCCN4CC[C@H](OC)C4)ccc23)cc(OC(F)F)c1C(=O)N[C@@H]1C[C@@H]1F
Result string: 57

Query string: Under SIK3 kinase (aa59-365, Thermo Fisher) (Homo sapiens), report IC50 for COc1cc(-c2coc3cc(-c4cnn(C5CN(C)C5)c4)ccc23)cc2c1C(=O)N(CC(F)(F)F)CC2
Result string: 19

Query string: Under SIK3 kinase (aa59-365, Thermo Fisher) (Homo sapiens), report IC50 for COc1cc(-c2coc3cc(OCCN4CCC4)ccc23)cc(OC(F)F)c1C(=O)N[C@@H]1C[C@@H]1F
Result string: 93

Query string: Under SIK3 kinase (aa59-365, Thermo Fisher) (Homo sapiens), report IC50 for COc1cc(-c2coc3cc(-c4cnn(C)c4)ccc23)cc(OC)c1-c1nnc(C2CC2)o1
Result string: 255

Query string: Under SIK3 kinase (aa59-365, Thermo Fisher) (Homo sapiens), report IC50 for COc1cc(-c2coc3cc(-c4cnn(C)c4)ccc23)cc2c1C(=O)N(CC(F)(F)F)[C@@H](C)C2 [Compound 29A]
Result string: 42

Query string: Under SIK3 kinase (aa59-365, Thermo Fisher) (Homo sapiens), report IC50 for COc1cc(-c2coc3cc(-c4cnn(C(C)C)c4)ccc23)cc2c1C(=O)N(CC(F)(F)F)CC2
Result string: 42

Query string: Under SIK3 kinase (aa59-365, Thermo Fisher) (Homo sapiens), report IC50 for CN1CCC(n2cc(-c3ccc4c(-c5cc6c(c(OC(F)F)c5)C(=O)N(CC(F)(F)F)CC6)coc4c3)cn2)CC1
Result string: 36.1

Query string: Under SIK3 kinase (aa59-365, Thermo Fisher) (Homo sapiens), report IC50 for COc1cc(-c2coc3cc(OCCN4CC[C@H](C(C)C)C4)ccc23)cc(OC(F)F)c1C(=O)N[C@@H]1C[C@@H]1F
Result string: 33

Query string: Under SIK3 kinase (aa59-365, Thermo Fisher) (Homo sapiens), report IC50 for O=C1c2c(cc(-c3coc4cc(-c5cnn(C6CCNCC6)c5)ccc34)cc2OC(F)F)CCN1CC(F)(F)F
Result string: 57
